Tested on: MS2 coat protein
ASSAY METHOD TEXT: apparent KD of MS2 coat protein; designed switch direction (-1 OFF switch, 1 ON switch): 1; higher = weaker reporter binding
CONDITION NOTES: input ligand: FMN 200 uM
Please enter satisfied where apparent KD of MS2 coat protein is greater than or equal to 400 nM, and not satisfied where it is lower.

Example cases with answers are listed next.
seq_string="GGUCCAUCAUGAGGAUAUGGCACCUUAUUGGUGCCAGAAGGCAUGUAAAUUAUAAUAAACAUGAGGAUCACCCAUGUAUGGACC [Eli NG1ss - 96] (Eterna round: R96, puzzle: Same State NG 1)" target_of_assay="MS2 coat protein" class=satisfied
seq_string="UGUUGUAUUACAGGAUAUCUAUGAUUUUUACUUAGAGAAGGGUAUUCACAUGAGGAUCACCCAUGUAUAUACGAGGAAGUUGUG [JMF's solution 67] (Eterna round: R96, puzzle: Same State NG 1)" target_of_assay="MS2 coat protein" class="not satisfied"
seq_string="AUUAUUAAUGCAGGAUAUGAUUAACAUGAGGAUCACCCAUGUGGUGUUGUGAGUAAGGAGAGUGAUCAGAAGGGCAUUUUUUCU [JMF's solution 17] (Eterna round: R96, puzzle: Same State NG 2)" target_of_assay="MS2 coat protein" class=satisfied
seq_string="AGAAGACAUGAGGAUCACCCAUGUACCUCAUAAGGAGAGAGCGAGGAUAUGUAGAGAGAGAGGGAGCAGAAGGUGUGGGAGGAA [Default title] (Eterna round: R96, puzzle: Same State NG 3)" target_of_assay="MS2 coat protein" class="not satisfied"

Now look at this entry.
I'd appreciate it if you could say whether GCUCGCACGAUGACCGACAUGAGGAUCACCCAUGUGUGUCGGUAGGAUAUCUAUAUUAAGGAUUUAGAGAAGGGCCCAGCGAGC [SameState NG3 #20] (Eterna round: R96, puzzle: Same State NG 3) has apparent KD of MS2 coat protein at least equal to 400 nM.
not satisfied

* * *

System: MS2 coat protein
ASSAY METHOD TEXT: apparent KD of MS2 coat protein, switch OFF state (with FMN for OFF switches, without FMN for ON switches); designed switch direction (-1 OFF switch, 1 ON switch): -1; higher = weaker reporter binding
CONDITION NOTES: FMN input: 0 or 200 uM; Eterna round: R93 (includes R88 designs)
# apparent KD of MS2 coat protein >= 60 nM gives Satisfied, anything below gives Not satisfied

Quick check, apparent KD of MS2 coat protein >= 60 nM? AAUAAUGGAGGAUAUACUAAAGAAAUGAAAAGAAAUAAAGAACAUGAGGAUCACCCAUGUAGAAGGCCAAAUAA [Khamure]
Not satisfied

Kindly determine if apparent KD of MS2 coat protein recorded for CUCUUGUCAGGAUAUUGAAGAAAAGAAGAGAAAGAAAAGAACAAGAAGGGACAUGAGGAUCACCCAUGUAAGAA [EteRNA is fun!] is above or exactly 60 nM.
Satisfied

Check the entry AAAAAGGCAGGAUAUACAAAAAAAAAAAAAGAGGAGGAGGGACAUGAGGAUCACCCAUGUAGAAGGGCCAAAAA [William Edward Burghardt 'W. E. B.' Du Bois] : does apparent KD of MS2 coat protein equal or exceed 60 nM?
Satisfied

Please check the record AAGAAGUCAGGAUAUACUAAAGAAAUAAAAAGAAAGAAAGAACAUGAGGAUCACCCAUGUAGAAGGGACAAGAA [Sewadjare Mentuhotep V] and state if its apparent KD of MS2 coat protein is at or above 60 nM.
Not satisfied

Is it the case that AAGAAGUAAGGAUAUACAAGAAAGAAAGAAAAGAAAAGAAAACAUGAGGAUCACCCAUGUAGAAGGUACUAGAA [EteRNA is fun!] has apparent KD of MS2 coat protein reaching or exceeding 60 nM?
Not satisfied

Would you say AGCUAGUGAGGAUAUACGAACAUGUCAAAAGACGUGAAGGAACAUGAGGAUCACCCAUGUAGAAGGCACUAGCA [Mat - Exclusion 2 - JL-Eli mod - D54] shows apparent KD of MS2 coat protein at minimum 60 nM?
Not satisfied

Could you please find out whether ACUAACAGAGGAUAUACUAACAAACCUCAAACAUACAUCAAACAUGAGGAUCACCCAUGUAGAAGGCUGAAACU [JR_Exc002_Sub005] has apparent KD of MS2 coat protein that meets 60 nM or exceeds it?
Not satisfied

Record UAUGAGCGAGGAUAUGCUUGGGACUGUCGGAAGGUGGCGGGACAUGAGGAUCACCCAUGUAGAAGGCGCGAGCG [Harteesian Tree] ; criterion: apparent KD of MS2 coat protein no lower than 60 nM. Met?
Satisfied

Has AGCUAGUCAGGAUAUACGCAAACGAACGAAGCUGAGAAGGGACAUGAGGAUCACCCAUGUAGAAGGGACUAGCA [Diamond 32] a recorded apparent KD of MS2 coat protein greater than or equal to 60 nM?
Not satisfied

* * *

Give measured apparent KD of K4 kissing-loop reporter for each item. Keep answers brief.
Test system: K4 kissing-loop RNA reporter;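 further: bound reporter read as fluorescence of individual clusters on recovered sequencing chips by microscopy, with normalized cluster intensities fitted with a binding model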
ASSAY METHOD TEXT: apparent KD of K4 kissing-loop reporter; higher = weaker reporter binding
CONDITION NOTES: Eterna round: R107; input ligand: tryptophan 2.4 mM
Numbers only, in nM.

// solved cases for apparent KD of K4 kissing-loop reporter follow
seq_string="GAUUCAGUGAUGUUGGAAGGCGAGCGGGAUACCAGCCAAGACUCAGGCCCUUGGCAGCCCACAUAUCCCAGGUAGAUAGUCGCUC [Same State - Theophylline A (Freestyle 11)]" measured_attribute="apparent KD of K4 kissing-loop reporter" observed=270
seq_string="AUAGUGAGCUCGGCCGCCACUCCACUAUGUCAACAGUAGCUCUGUCAUAACCAGUGAUGUUGGUUGAGGACCGGGAGUUAAGACU [theeternabot_exclusion_KL_Trp_B_34]" measured_attribute="apparent KD of K4 kissing-loop reporter" observed=201

Pending sequence:
Recorded result, UAGGGCAUCGCAGGAUAUCCUGCUUAACGUUGGAUUCCAGUGAUGUUGGAAAGUCGGCCUAGGGUAGGAGAAGGGCGAACUUGAA [Maxean] , apparent KD of K4 kissing-loop reporter: 98.1

* * *

System: MS2 coat protein
ASSAY METHOD TEXT: apparent KD of MS2 coat protein; designed switch direction (-1 OFF switch, 1 ON switch): -1; higher = weaker reporter binding
CONDITION NOTES: input ligand: none
MEASURED ATTRIBUTE: apparent KD of MS2 coat protein (µM)
Answers are plain numbers, in µM.

Past entries and their recorded results:
seq_string="GUACGCUCAGGAUAUCAAGGGCUGUACAUGAGGAUCACCCAUGUUAUCUUGGUGUCAGCGUGAGAAGGGAGGGAAA [Xesoonesa] (Eterna round: R96, puzzle: Exclusion 5)" unit_label=µM observed=0.0286
seq_string="AAUAACAAGCAGAUCCUCCACAUGAGGAUCACCCAUGUGCUCGUCUUGUAAAGUACUAUCACGAAAGUGAUAGUACA (Eterna round: R97, puzzle: Sensor, turn-off variant 1)" unit_label=µM observed=0.718
seq_string="CUCGUGCAGCUUUGCUGUACGAGUACAUGAGGAUCACCCAUGUAGGAUAUGGUACGCAAAGCGUGCCAGAAGGACGUGCGUUAG [Mat - Exclusion NG 3 - Mod of JL - D93] (Eterna round: R96, puzzle: Exclusion NG 3)" unit_label=µM observed=0.0331
seq_string="UCCAGCAUACGGAGAUCCAACAUGAGGAUCACCCAUGUCUGGAAAGCUUUUUGCUUGUCUUAUCCGUCUCUGUGUGU [Design #7] (Eterna round: R97, puzzle: Sensor, turn-off variant 1)" unit_label=µM observed=0.0358
seq_string="GCACGGGUGGUAGGAUAUCCUUGCGAUUAGCAAGGAGAAGGACCACAUGAGGAUCACCCAUGUACCUCAAUUAUCCUUCCGUGC [Eli exng1 - 024] (Eterna round: R96, puzzle: Exclusion NG 1)" unit_label=µM observed=0.0145

Take each entry in turn and give its apparent KD of MS2 coat protein.
1. AACCAGCUAGGAUAUGCUUGCGCGUGUUCUGGUUAUAAUCGACUUGAGGAUCACCCAAGUAGAAGGAGCUGGCG [EX2 #54] (Eterna round: R97, puzzle: Exclusion 2)
2. GUUGACUGAUGAGGAUAUUCAUAAGAAUGGGCCUUGGUUUUACAUGAGGAUCACCCAUGUUGACAGAAGAAGGCAUCAGUCUGA [Eternabot solution 28] (Eterna round: R96, puzzle: Exclusion NG 2)
3. UAACUACAUGAGGAUCACCCAUGUCAGGAUAUGCCGUUAAAUUAACAUCAACAUACGGGUAGAAGGGACAACGU [1st #3] (Eterna round: R97, puzzle: Exclusion 1)
4. UGCGGGCUUUUGAGACCUCACAUGAGGAUCACCCAUGUGCUUGUCUUGUGGGUCGGUCGGUCGUUGGCUGGCUGGCU [-29.6, -52.1 kcal, A 10%] (Eterna round: R97, puzzle: Sensor, turn-off variant 1)

[0.445, 0.109, 0.0298, 0.0178]
